Measured pIC50 on C-domain of MALT1 (amino acids 329-824) (Homo sapiens (Human)) follows.
Sequence (Q9UDY8 329-824): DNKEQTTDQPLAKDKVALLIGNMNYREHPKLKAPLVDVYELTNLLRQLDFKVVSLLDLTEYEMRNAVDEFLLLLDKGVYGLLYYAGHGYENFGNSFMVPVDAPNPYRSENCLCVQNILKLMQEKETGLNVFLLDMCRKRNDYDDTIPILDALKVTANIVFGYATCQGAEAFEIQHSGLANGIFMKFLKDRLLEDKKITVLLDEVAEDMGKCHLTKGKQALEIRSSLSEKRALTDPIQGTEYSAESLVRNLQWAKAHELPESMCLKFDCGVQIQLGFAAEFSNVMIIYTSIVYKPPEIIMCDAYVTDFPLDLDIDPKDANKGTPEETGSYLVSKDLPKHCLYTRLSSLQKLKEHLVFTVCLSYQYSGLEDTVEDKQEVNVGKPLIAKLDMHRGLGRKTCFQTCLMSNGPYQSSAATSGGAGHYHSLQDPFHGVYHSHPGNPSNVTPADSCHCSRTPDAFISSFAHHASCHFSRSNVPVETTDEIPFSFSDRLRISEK
Entry type: numeric. Quantity: pIC50, the -log10 of concentration in molar units.

Field: example entries. Status: answers known.
{"smiles string": "CN[C@@H](C)c1c(NC(=O)Nc2cnc(-n3nccn3)c(Cl)c2)cnc2cc(Cl)nn12", "pIC50": 7.92}
{"smiles string": "C[C@H](O)c1c(NC(=O)Nc2ccnc(C(F)(F)F)c2)cnc2cc(Cl)nn12", "pIC50": 8.15}
{"smiles string": "CC(C)c1c(NC(=O)Nc2ccc(-c3ccnc(N)n3)c(Cl)c2)cnc2cc(Cl)nn12", "pIC50": 8.40}
{"smiles string": "Cc1cc(CO)nn1-c1ccc(NC(=O)Nc2cnc3cc(Cl)nn3c2C(C)C)cc1Cl", "pIC50": 8.05}

Next, consider the following compound.
Request: State its pIC50 for this compound: Cn1ccnc1-c1c(NC(=O)Nc2cnc(-n3nccn3)c(Cl)c2)cnc2cc(Cl)nn12
Result: 7.10
